tested on: biotinyl-Trp-oxazolone; assay: self-aminoacylation, catalytic enhancement (BWO) (fold over background); higher = more active; k-Seq, kA / k0A0; sequences stand for … in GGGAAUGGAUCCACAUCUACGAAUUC…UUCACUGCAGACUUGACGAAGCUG
This sample holds only a part of the variants without activity.
experimentalEndpoint: self-aminoacylation

chain: AAGUCUGCUAACAGUCGCAAG [Fam3.1 aminoacylation ribozyme variant]
experimentalEndpoint: self-aminoacylation
reported: 7.03
//
chain: AUUCACCUAGUUCAUCGGGUA [Fam2.2 aminoacylation ribozyme variant]
experimentalEndpoint: self-aminoacylation
reported: 2.37
//
chain: GUACUUCAACCAAUCGGUCUG [Fam1A.1 aminoacylation ribozyme variant]
experimentalEndpoint: self-aminoacylation
reported: 15.1
//
chain: AUUCACCAAGGUCAUCGAGUG [Fam2.2 aminoacylation ribozyme variant]
experimentalEndpoint: self-aminoacylation
reported: 2.57
//
chain: AUGUGUGCUAAUAGUCGCAAG [Fam3.1 aminoacylation ribozyme variant]
experimentalEndpoint: self-aminoacylation
reported: 1.95
//
chain: CCAUACUUCAAGCAAUGGGUC [Fam1B.1 aminoacylation ribozyme variant]
experimentalEndpoint: self-aminoacylation
reported: 0.627
//
chain: CUACUUCAAACGAUCGGUCUG [Fam1A.1 aminoacylation ribozyme variant]
experimentalEndpoint: self-aminoacylation
reported: 1.31
//
chain: AUUACCCCGAUCAUCGAGUGA [Fam2.1 aminoacylation ribozyme variant]
experimentalEndpoint: self-aminoacylation
reported: 7.71
//
chain: CCCAACUUCAAGCAAUCGGUC [Fam1B.1 aminoacylation ribozyme variant]
experimentalEndpoint: self-aminoacylation
reported: 40.9
